Test: Solubility to fasted state simulated intestinal fluid
Assay type: physicochemical
Conditions: fassif, kinetic from dmso stock, fasted state simulated intestinal fluid (pH 6.5), 37° C.
propertyMeasured: solubility at 20 h (µg/mL)

Consider the following illustrative entries.
>>> datavalue("CNc1ncnc2c1ncn2-c1ccc(NC(=O)Nc2ccc(CCN3CCN(C(C)C)CC3)c(C(F)(F)F)c2)cc1")
193
>>> datavalue("O=C(Nc1ccc(-n2cnc3c(NCCN4CCOCC4)ncnc32)cc1)Nc1ccc(Cl)c(C(F)(F)F)c1")
38
>>> datavalue("CCCNC(=O)Nc1ncnc2c1ncn2-c1ccc(NC(=O)Nc2ccc(Cl)c(C(F)(F)F)c2)cc1")
39
>>> datavalue("CNc1ncnc2c1ncn2-c1ccc(NC(=O)Nc2ccc(Cl)c(C(F)(F)F)c2)cc1.Cl")
22
>>> datavalue("Cl.Nc1ncc2ncn(-c3ccc(NC(=O)Nc4ccc(Cl)c(C(F)(F)F)c4)cc3)c2n1")
34
>>> datavalue("CCc1nc2c(N)ncnc2n1-c1ccc(NC(=O)Nc2cc(CN3CCN(C)CC3)cc(C(F)(F)F)c2)cc1")
175
>>> datavalue("CNc1ncnc2c1ncn2-c1ccc(NC(=O)Nc2ccc(CCCN3CCCC3)c(C(F)(F)F)c2)cc1")
34
>>> datavalue("CNc1ncnc2c1ncn2-c1ccc(NC(=O)Nc2ccc(CCN(C)CCN(C)C)c(C(F)(F)F)c2)cc1")
107
>>> datavalue("CN(C)Cc1nc2c(N)ncnc2n1-c1ccc(NC(=O)Nc2ccc(Cl)c(C(F)(F)F)c2)cc1")
265
>>> datavalue("CNc1ncnc2c1ncn2-c1ccc(NC(=O)Nc2cc(C(=O)N3CCN(C)CC3)cc(C(F)(F)F)c2)cc1")
48

(P) CNc1ncnc2c1ncn2-c1ccc(NC(=O)Nc2cc(CCCN3CCCC3)cc(C(F)(F)F)c2)cc1
(Q) COCCOCCOCC(=O)Nc1ncnc2c1ncn2-c1ccc(NC(=O)Nc2ccc(Cl)c(C(F)(F)F)c2)cc1
(R) COCCOC(=O)Nc1ncnc2c1ncn2-c1ccc(NC(=O)Nc2ccc(Cl)c(C(F)(F)F)c2)cc1
(S) CN(C)CCN(C)c1ccc(NC(=O)Nc2ccc(-n3cnc4c(N)ncnc43)cc2)cc1C(F)(F)F
(T) C=Cc1nc2c(N)ncnc2n1-c1ccc(NC(=O)Nc2cc(CN3CCN(C)CC3)cc(C(F)(F)F)c2)cc1
Rank items: key solubility at 20 h, increasing. List the labels in the requested order.
R, Q, P, S, T

(P) CNc1ncnc2c1ncn2-c1ccc(NC(=O)Nc2ccc(OC3CCN(C)CC3)c(C(F)(F)F)c2)cc1
(Q) CNCCOc1cccc2c1ccn2-c1ccc(NC(=O)Nc2ccc(Cl)c(C(F)(F)F)c2)cc1.Cl
Between P and Q , whose measured solubility at 20 h reads higher? Give the label under which the chosen entry appears.
P
(P: 35 µg/mL, Q: 24 µg/mL)

(P) CNc1ncnc2c1ncn2-c1ccc(NC(=O)Nc2ccc(CNCCN3CCCC3)c(C(F)(F)F)c2)cc1
(Q) CN1CCN(Cc2cc(NC(=O)Nc3ccc(-n4cnc5c(C(N)=O)nccc54)cc3)cc(C(F)(F)F)c2)CC1
(R) COCCNc1ncnc2c1ncn2-c1ccc(NC(=O)Nc2ccc(Cl)c(C(F)(F)F)c2)cc1.Cl
(S) CN1CCN(Cc2cc(NC(=O)Nc3ccc(-n4cnc5c(N)ncnc54)cc3)cc(C(F)(F)F)c2)CC1
Place the items in sequence of falling solubility at 20 h. List the labels in the requested order.
Q, P, S, R
(Q: 193 µg/mL, P: 104 µg/mL, S: 61 µg/mL, R: 24 µg/mL)
